System: U251 CNS
Test: NCI tumour cell line growth inhibition, 48 h
Measured TGI accompanies every entry in the list below.

>  <COMPOUND>
CC(C)C(N)(C(=O)O)c1ccccc1 (centres undefined)

>  <TGI>
> 100 µM

$$$$
>  <COMPOUND>
C=C(C)C1/C=C(/C(C)C)CC[C@]2(C)O[C@@H]2CC[C@H](C)CC1=O (some centres undefined)

>  <TGI>
> 100 µM

$$$$
>  <COMPOUND>
Cc1cc(=Nc2ccc3c(c2)c(N)cc(C)[n+]3C)nc(N)n1C

>  <TGI>
> 100 µM

$$$$
>  <COMPOUND>
CC(C)(C)C=C=C(C(C)(C)C)P(=O)(O)O

>  <TGI>
> 100 µM

$$$$
>  <COMPOUND>
Cn1cnc([N+](=O)[O-])c1Sc1ncnc2c1ncn2C1OC(CO)C(O)C1O (centres undefined)

>  <TGI>
> 100 µM

$$$$
>  <COMPOUND>
O=C(NCc1ccccc1)c1cnc(Cl)cn1

>  <TGI>
> 100 µM

$$$$
>  <COMPOUND>
O=Cc1coc2ccccc2c1=O

>  <TGI>
65.2 µM

$$$$
>  <COMPOUND>
CC1=C2C(c3ccccc3)(c3ccccc3)C3C=CC2(C=N3)N(C(=O)NC2CCCCC2)C1=O (centres undefined)

>  <TGI>
30.6 µM

$$$$
>  <COMPOUND>
O=C(NC(Nc1ccc(F)c(Cl)c1)(C(F)(F)F)C(F)(F)F)C(C(F)(F)F)C(F)(F)F

>  <TGI>
> 100 µM

$$$$
>  <COMPOUND>
O=C1C(c2ccccc2)=C(c2ccccc2)C(c2ccc(CCCCCCc3ccc(C4=C(c5ccccc5)C(=O)C(c5ccccc5)=C4c4ccccc4)cc3)cc2)=C1c1ccccc1

>  <TGI>
> 100 µM

$$$$

Report value: TGI, system: U251 CNS, compound: O=c1[nH]c(=S)[nH]c(O)c1/C=C1\C=CC=N1
89.2 µM

Report value: TGI, system: U251 CNS, compound: Cc1[nH]c2ccccc2c1C=Nc1ccc(Oc2ccccc2)cc1
29.3 µM

Report value: TGI, system: U251 CNS, compound: Oc1ccccc1-n1c(-c2ccccc2)ccc1-c1ccccc1
20.6 µM

Report value: TGI, system: U251 CNS, compound: COc1cc2c(cc1OC)C(Cl)C(c1cc(OC)c(OC)c(OC)c1)=C2Cl (centres undefined)
33 µM

Report value: TGI, system: U251 CNS, compound: COc1nc(=O)n(C2CC(N=[N+]=[N-])C(CO)O2)cc1C (centres undefined)
> 100 µM

Report value: TGI, system: U251 CNS, compound: CC(C)(C)OC(=O)N1CCC23CCCC2C(=O)CC=C13 (centres undefined)
> 100 µM

Report value: TGI, system: U251 CNS, compound: COC(=O)C1(Cc2cccc(Cl)c2)CCCCCCN1C(=O)c1ccccc1 (centres undefined)
29.7 µM

Report value: TGI, system: U251 CNS, compound: COc1ccc(NC(=O)C(=O)C2NC(=S)NC2=O)c(OC)c1 (centres undefined)
> 100 µM

Report value: TGI, system: U251 CNS, compound: O=c1[nH]c(-c2ccc(C(F)(F)F)cc2)nc2c1CSCC2
> 89.6 µM

Report value: TGI, system: U251 CNS, compound: COc1ccccc1-n1c(SCc2cc(OC)c(OC)c(OC)c2)nc2ccc(Cl)cc2c1=O
> 100 µM

---

Tested on: HCT-116 colon
Test: NCI tumour cell line growth inhibition, 48 h
OBSERVATION TYPE: TGI

>  <COMPOUND STRING>
CC(=O)OC[C@@]12C[C@H]3C(=O)C(C)(C)C[C@H]3[C@]1(C)[C@@H](OC(C)=O)[C@]1(O)[C@H]([C@@H](OC(=O)c3ccccc3)[C@@H](C)[C@H]1OC(C)=O)[C@H]2OC(C)=O

>  <MEASURED ON>
HCT-116 colon

>  <TGI>
> 20 µM

$$$$
>  <COMPOUND STRING>
Cc1n[nH]c(=O)n1N=C(c1ccccc1)c1ccccc1

>  <MEASURED ON>
HCT-116 colon

>  <TGI>
> 100 µM

$$$$
>  <COMPOUND STRING>
C#CCOC(=O)c1ccccc1OC(C)=O

>  <MEASURED ON>
HCT-116 colon

>  <TGI>
> 100 µM

$$$$
>  <COMPOUND STRING>
Oc1c(CN2CCCC2)cc(COCc2ccccc2)c2cccnc12

>  <MEASURED ON>
HCT-116 colon

>  <TGI>
11 µM

$$$$

Quickly give me recorded TGI for Cc1ccc(S(=O)(=O)N/N=C2\C=C[C@]3(CC2)C(=O)N(C)c2ccccc23)cc1
> 100 µM

---

Test system: HOP-62 NSCLC
Test: NCI tumour cell line growth inhibition, 48 h; in the data active means GI50 below about 0.43 µM; inactive means the rest
Hi there, use one of these labels in your reply, thanks! 1 (yes) (active), 0 (no) (inactive)

>  <MOLECULE>
CN(Cc1cnc2nc(N)nc(N)c2n1)c1ccc(C(=O)NC(CCC(=O)O)C(=O)O)cc1 (stereo not drawn)

>  <ASSIGNED CATEGORY>
1 (yes)

$$$$
>  <MOLECULE>
O=c1[nH]c(-c2ccc(C(F)(F)F)cc2)nc2c1CSCC2

>  <ASSIGNED CATEGORY>
0 (no)

$$$$

GET /call?item= FC(F)(F)c1ccc(-c2cnc(Br)nc2NC2CCCCCC2)cc1 returns the recorded outcome of this test.
0 (no)

GET /call?item= COc1ccc(C(O)c2cc3c(N)c(C(=O)Nc4cccc(Br)c4)sc3nc2C)cc1 (stereo not drawn) returns the recorded outcome of this test.
1 (yes)

GET /call?item= CC/C=C\CCC/C=C1/C(=O)C=C[C@@H]1C/C=C\CCCC(=O)O returns the recorded outcome of this test.
0 (no)

GET /call?item= CN(C)c1ccc(/C=C/c2ccnc3ccccc23)cc1 returns the recorded outcome of this test.
0 (no)

GET /call?item= O=C(/C=C/c1ccco1)Nc1ncc(Cc2ccc(F)cc2)s1 returns the recorded outcome of this test.
1 (yes)

GET /call?item= O=C(NNS(=O)(=O)c1cc(C(F)(F)F)cc(C(F)(F)F)c1)c1cnn(-c2ccc(Cl)cc2)c1C(F)(F)F returns the recorded outcome of this test.
0 (no)

---

Test system: NCI-H460 lung
Assay: NCI tumour cell line growth inhibition, 48 h; in the data active = GI50 below about 0.43 µM; inactive = the rest
Hi there, use one of these labels in your reply, thanks! t (active), f (inactive)

Sample answers from the record:
>  <COMPOUND>
CC(=O)N1CC(F)(F)c2c(Sc3ncc(N4CCC5(CC4)COC[C@H]5N)nc3N)cccc21

>  <MEASURED ON>
NCI-H460 lung

>  <ASSIGNED CATEGORY>
f

$$$$
>  <COMPOUND>
CN(Cc1cnc2nc(N)nc(N)c2n1)c1ccc(C(=O)NC(CCC(=O)O)C(=O)O)cc1 (stereo unspecified)

>  <MEASURED ON>
NCI-H460 lung

>  <ASSIGNED CATEGORY>
t

$$$$
>  <COMPOUND>
CCSC1=CC(=O)c2ccccc2C1=O

>  <MEASURED ON>
NCI-H460 lung

>  <ASSIGNED CATEGORY>
f

$$$$
>  <COMPOUND>
N#Cc1nc(-c2ccccc2)oc1S(=O)(=O)N1CCOCC1

>  <MEASURED ON>
NCI-H460 lung

>  <ASSIGNED CATEGORY>
f

$$$$

GET /call?item= CCS/C(Nc1ccccc1)=C(\C#N)C(=O)Nc1ccc(OC)cc1 returns the recorded outcome of this test.
f

GET /call?item= NC(CSC(c1ccccc1)(c1ccccc1)c1ccc2ccccc2c1)C(=O)O (stereo unspecified) returns the recorded outcome of this test.
t

---

Tested on: LOX IMVI melanoma
Experiment: NCI tumour cell line growth inhibition, 48 h
OBSERVATION TYPE: GI50

Previously resolved entries follow.
>  <COMPOUND>
O=Nc1c(O)ccc2ccccc12

>  <RESULT>
2.36 µM

$$$$
>  <COMPOUND>
C[Se]C(=O)CC1=C2C=C(F)C=CC2/C(=C\c2ccc(S(C)=O)cc2)C1C (configuration not stated)

>  <RESULT>
0.0141 µM

$$$$
>  <COMPOUND>
Cn1cnc([N+](=O)[O-])c1Sc1ncnc2c1ncn2C1OC(CO)C(O)C1O (configuration not stated)

>  <RESULT>
1.71 µM

$$$$
>  <COMPOUND>
O=C(NNS(=O)(=O)c1cc(C(F)(F)F)cc(C(F)(F)F)c1)c1cnn(-c2ccc(Cl)cc2)c1C(F)(F)F

>  <RESULT>
17 µM

$$$$
>  <COMPOUND>
Oc1ccccc1-n1c(-c2ccccc2)ccc1-c1ccccc1

>  <RESULT>
6.1 µM

$$$$

Quickly give me recorded GI50 for CC(=O)N1CC(F)(F)c2c(Sc3ncc(N4CCC5(CC4)COC[C@H]5N)nc3N)cccc21
16.6 µM

Quickly give me recorded GI50 for COc1ccc(NC(=O)c2cc(OC)c(OC)c(OC)c2)cc1O
8.33 µM
